- System: Tov-21-G
- measurement.description: Primary qHTS to identify gynecologic anti-cancer compounds using libraries of approved drugs and bioactive compounds (AID 1345084); note: nearly all actives have a fitted effect of over 55% in size
- test.settings: Gynecologic cancer cell panel viability, ATPlite luminescence, 48 h; series mostly up to 57.5 µM
Results filed as inconclusive are left out. The source made the active and inactive calls. Calls come from the whole dose curve; as a rule, active = well fitted cell-killing curve with a large enough effect; inconclusive = small, poorly fitted or top-dose-only effect, or effect the other way; inactive = flat fitted curve, though single readings scatter.
Pick from active, inactive when you respond.

Take a look at these entries with their results.
| molecule | group.label |
| --- | --- |
| C1=C2CCCN[C@H]2[C@@H]2C[C@H]1[C@H]1CCCCN1C2 | inactive |
| COCC1OC(=O)c2coc3c2C1(C)C1=C(C3=O)C2CCC(=O)C2(C)CC1O (stereo unspecified) | inactive |
| C[C@]12CC[C@H]3[C@@H]([C@H](O)CC4=CC(=O)CC[C@@]43C)[C@@H]1CC[C@@H]2O | inactive |
| CC(C)(C)c1cc(C(C)(C)C)c2c(c1)C(O)(C(F)(F)F)C(=O)O2 (stereo unspecified) | inactive |
| COC(=O)[C@@]12C(=O)C(C)C(=O)[C@]1(C)C(C)=C[C@H]1[C@]3(C=O)CC[C@H](OC(C)=O)C(C)(C)[C@H]3CC[C@@]12C (stereo partly specified) | inactive |

Query :: // param item: Clc1ccc(OCC2=NCCN2)cc1Cl ; yields the recorded call
Result :: inactive

Query :: // same read-out, input: CN1C(=O)N(c2ccc(C#N)c(C(F)(F)F)c2)C(=O)[C@]1(CO)c1ccccc1
Result :: inactive

Query :: Also COC1CC(O[C@H]2CC[C@]3(C=O)C4CC[C@]5(C)[C@@H](C6=CC(=O)OC6)CC[C@]5(O)[C@@H]4CC[C@]3(O)C2)OC(C)C1O[C@@H]1O[C@H](CO)[C@@H](O)[C@H](O)[C@H]1O (stereo partly specified) ?
Result :: active

Query :: // repeat for Cn1ncnc1COc1nn2c(-c3c(F)cccc3F)nnc2cc1C1CCC1 and report
Result :: inactive

Query :: And then CC(N)Cc1c[nH]c2ccccc12 (stereo unspecified) , what is it?
Result :: inactive

Query :: Proceed to Cc1c(Cl)cccc1S(=O)(=O)Nc1nc(CC(=O)N2CCN(C)CC2)cs1
Result :: inactive

Query :: Then this molecule: CC1=CC2/C=C(\C)CCC(O)C3OC(C)(C)OC3CC(=O)OC23C(=O)NC(CC(C)C)C3C1C (stereo unspecified)
Result :: inactive

Query :: OCCCCC#Cc1cncc(OC[C@@H]2CCN2)c1 ?
Result :: inactive

* * *

- Tested on: P94_40
- measurement.description: qHTS profiling for inhibitors of Plasmodium falciparum proliferation (AID 504749); note: nearly all actives have a fitted effect of over 60% in size
- test.settings: P. falciparum in erythrocytes, SYBR Green DNA, 72 h; series mostly up to 28.7 µM
- Protocol: NIH National Institute of Allergy and Infectious Diseases [NIAID] NIH Chemical Genomics Center [NCGC] […] Because mature erythrocytes lack DNA, only Plasmodium-derived DNA is detected. NCGC Assay Protocol Summary: The SYBR Green viability assay was adapted from a method described previously (Plouffe et al., 2008). […] The following morning, fluorescence intensity at 485(14) nm excitation and 535(25) nm emission wavelengths was measured on an EnVision (Perkin Elmer) plate reader. […]
Records with an inconclusive call do not appear. The source made the active and inactive calls. The call rests on the fitted dose curve; in most records, active means well fitted inhibition curve with a large enough effect; inconclusive means small, poorly fitted or top-dose-only effect; inactive means flat fitted curve, though single readings scatter.
Log the outcome using a class from true = active, false = inactive

For orientation, consider the following solved cases.
| molecule | group.label |
| --- | --- |
| CNC(C)C(O)c1ccc(O)cc1 (configuration not stated) | false |
| COC1=CC=C2[C@H]3Cc4ccc(OC)c5c4[C@@]2(CCN3C)[C@H]1O5 | false |

Query :: So what was the verdict on O=c1[nH]cc(N(CCCl)CCCl)c(=O)[nH]1 in this test?
Result :: false

Query :: Same question, CCN(CC)C(=O)/C(Cl)=C(\C)OP(=O)(OC)OC this time
Result :: false

Query :: Also Oc1cccc[c]1[Hg][Cl] ?
Result :: true

Query :: Same read-out for C=CCN1CC[C@]23c4c5ccc(O)c4O[C@H]2[C@@H](O)C=C[C@H]3[C@H]1C5 ?
Result :: false

* * *

- System: ATS189
- measurement.description: qHTS profiling for inhibitors of Plasmodium falciparum proliferation (AID 504749); note: nearly all actives have a fitted effect of over 60% in size
- test.settings: P. falciparum in erythrocytes, SYBR Green DNA, 72 h; series mostly up to 28.7 µM
Results filed as inconclusive are left out. Calls of active or inactive are those of the source. The call rests on the fitted dose curve; in most records, active means well fitted inhibition curve with a large enough effect; inconclusive means small, poorly fitted or top-dose-only effect; inactive means flat fitted curve, though single readings scatter.
Select the correct class. Options are T = active, F = inactive and nothing else.

Please review the following examples before continuing.
| compound | group.label |
| --- | --- |
| Cc1sc2ccccc2c1CC1=NCCN1 | F |
| Oc1cccc[c]1[Hg][Cl] | T |
| CNC1(c2ccccc2Cl)CCCCC1=O (centres undefined) | F |

Query :: Hi team, can someone confirm the assay call for ClC1C(Cl)C(Cl)C(Cl)C(Cl)C1Cl (centres undefined) ?
Result :: F

Query :: Next up: Clc1ccc(Cl)cc1
Result :: F

Query :: Continue with C/C(=C\c1csc(C)n1)[C@@H]1C[C@@H]2O[C@]2(C)CCC[C@H](C)[C@H](O)[C@@H](C)C(=O)C(C)(C)[C@@H](O)CC(=O)O1
Result :: T

Query :: Param item: CC(=O)OO
Result :: F

Query :: What do you have for CCC1C(C)=NN=C(c2ccc(OC)c(OC)c2)c2cc(OC)c(OC)cc21 (centres undefined) ?
Result :: F

Query :: Then what about the compound CNC(=O)OCC[N+](C)(C)C ?
Result :: F

* * *

- measurement.description: Cytometric Cell-Based qHTS for Inhibitors of the mTORC1 Signaling Pathway in MEF (Tsc2-/-, p53-/-) Cells (AID 2660)
- test.settings: mTORC1 pathway cytometry; series mostly up to 38.3 µM
Inconclusive results are not listed. The source made the active and inactive calls. The call rests on the fitted dose curve; in most records, active means well fitted curve in the direction sought with a large enough effect; inconclusive means small, poorly fitted or top-dose-only effect, or another doubt; inactive means no such curve, though single readings can be large or run the other way.
Write down the outcome that applies. Available outcomes: active, inactive

These solved cases illustrate the format of a correct answer.
| compound | group.label |
| --- | --- |
| COc1ccc2c(c1)C13CCCCC1C(C2)N(C)CC3 (stereo not drawn) | inactive |
| CN1CC[C@@]2(C)c3cc(O)ccc3N(C)C12 (stereo partly drawn) | inactive |
| N#CCCN | inactive |
| C#CCN[C@H](C)Cc1ccccc1 | inactive |
| NCCc1c[nH]c2ccc(C(N)=O)cc12 | inactive |

Query :: Outcome? C[N+]1(C)CCN(c2ccccc2)CC1
Result :: inactive

Query :: Quick one: CC(=O)c1c(O)c(C)c(O)c(Cc2c(O)c3c(c(C(=O)/C=C/c4ccccc4)c2O)OC(C)(C)C=C3)c1O
Result :: inactive

Query :: Another compound: N[C@@H](CCl)C(=O)O
Result :: inactive

Query :: Now this one: Cc1[nH]c2ccc(O)cc2c1CCN
Result :: inactive

Query :: # repeat for CC1(C(=O)O)C2CCC(O2)C1(C)C(=O)O (stereo not drawn)
Result :: active

* * *

- measurement.description: qHTS Assay for Modulators of Human Peripheral Myelin Protein 22 (PMP22) Expression/Activity (AID 1967);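 note: 0% = untreated cells and 100% end not stated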
- test.settings: Cell-based PMP22 reporter, dual-color luciferase ratio, mouse Pmp22 promoter in mouse Schwann cells; series mostly up to 115 µM
Inconclusive results are not listed. Calls of active or inactive are those of the source. Calls follow the shape of the dose curve; as a rule, active = well fitted curve in the direction sought with a large enough effect in the signal ratio; inconclusive = small, poorly fitted or top-dose-only effect, or effect the other way, or a change in a side signal; inactive = no such curve, though single readings can be large or run the other way; the % refers to the signal ratio.
measurement.name: outcome

| compound | measurement.name | endpoint.value |
| --- | --- | --- |
| CC(N)c1cccc(Cl)c1Cl (stereo not given) | outcome | inactive |
| CC(C)CC(NP(=O)(O)O[C@@H]1O[C@@H](C)[C@H](O)[C@@H](O)[C@H]1O)C(=O)NC(Cc1c[nH]c2ccccc12)C(=O)O (stereo not given in full) | outcome | inactive |
| CC(N)Cc1c[nH]c2ccc(O)cc12 (stereo not given) | outcome | inactive |
| CCCN(CCC)C1CCc2cccc(O)c2C1 (stereo not given) | outcome | inactive |

Query :: Request the reported outcome associated with C#CCN[C@H](C)Cc1ccccc1
Result :: inactive

Query :: Note, next up: CC(N)[C@H](O)c1ccc(O)c(O)c1 (stereo not given in full)
Result :: inactive

Query :: Another compound to check: CC12NC(Cc3ccccc31)c1ccccc12 (stereo not given)
Result :: inactive

Query :: // next record NC(C(=O)O)c1cc(=O)[nH]o1 (stereo not given)
Result :: inactive

* * *

- measurement.description: Cell Viability - NIH 3T3 (AID 541);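 note: cells exposed to compound for 40 hours; nearly all actives have a fitted effect of over 25% in size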
- test.settings: NIH 3T3 cell viability, qHTS
Results filed as inconclusive are left out. Activity calls are given as the source filed them. The call rests on the fitted dose curve; in most records, active means well fitted cell-killing curve with a large enough effect; inconclusive means small, poorly fitted or top-dose-only effect; inactive means flat fitted curve, though single readings scatter.
Returns: one label drawn from 1 (yes) for active, 0 (no) for inactive

Solved cases (10 shown):
| compound | group.label |
| --- | --- |
| CC(C)CCON=O | 0 (no) |
| ClC(Cl)(Cl)Cl | 0 (no) |
| Clc1ccccc1Cl | 0 (no) |
| [O]=[Cd] | 0 (no) |
| O=[N+]([O-])c1ccccc1 | 0 (no) |
| C=CCN=C=S | 0 (no) |
| O=Cc1ccco1 | 0 (no) |
| [O]=[Cr](=[O])([OH])[O][Cr](=[O])(=[O])[OH] | 1 (yes) |
| O=C(O)C(Cl)(Cl)Cl | 0 (no) |
| COC1=CC(=O)O[C@@H](/C=C/c2ccccc2)C1 | 0 (no) |

Query :: Called result for CCOC(=O)c1ccccc1C(=O)OCC
Result :: 0 (no)

Query :: # repeat for [Cl-].[Cl-].[Hg+2]
Result :: 1 (yes)

Query :: // query: CCCCCCCCOC(=O)c1ccccc1C(=O)OCCCCCCCC
Result :: 0 (no)

Query :: Subsequent entry: ClCC1CO1 (stereo not given)
Result :: 0 (no)

Query :: Can you handle C[C@H]1CC[C@@H]2[C@@H](C)[C@H]3[C@H](C[C@H]4[C@@H]5CC=C6CC(O[C@@H]7O[C@H](CO)[C@H](O)[C@H](O[C@@H]8O[C@H](CO)[C@@H](O)[C@H](O)[C@H]8O)[C@H]7O[C@H]7O[C@@H](C)[C@H](O)[C@@H](O)[C@H]7O)CC[C@]6(C)[C@H]5CC[C@]34C)N2C1 (stereo not given in full) next?
Result :: 1 (yes)

The values you see were collected from PubChem BioAssay (NCATS).
